Measured values drawn from patent US8871751B2 for this set.

- Test Target: ERα (Homo sapiens, UniProt P03372)
- Assay Comment: (ERE)3-luciferase reporter gene assay in T47D-KBluc cells
- Format: cell-based
- Set-up: Using a stably transfected breast cancer cell line that expresses endogenous ERα; endogenous in cells; host or cells: T47D-KBluc
- Settings: 0.2 nM E2, 24 h, read-out: IC50 for inhibition of E2-ERα-mediated (ERE)3-luciferase expression
Quantity Name: IC50

molecule_smiles=Cn1c(=S)c2[nH]c(SCCCC(=O)c3ccc(F)cc3)nc2n(C)c1=O test_target="ERα (Homo sapiens, UniProt P03372)" result="400 nM"

* * *

- Test Target: human androgen receptor (AR) binding to flARE (Homo sapiens, UniProt P10275)
- Sequence (P10275 whole entry): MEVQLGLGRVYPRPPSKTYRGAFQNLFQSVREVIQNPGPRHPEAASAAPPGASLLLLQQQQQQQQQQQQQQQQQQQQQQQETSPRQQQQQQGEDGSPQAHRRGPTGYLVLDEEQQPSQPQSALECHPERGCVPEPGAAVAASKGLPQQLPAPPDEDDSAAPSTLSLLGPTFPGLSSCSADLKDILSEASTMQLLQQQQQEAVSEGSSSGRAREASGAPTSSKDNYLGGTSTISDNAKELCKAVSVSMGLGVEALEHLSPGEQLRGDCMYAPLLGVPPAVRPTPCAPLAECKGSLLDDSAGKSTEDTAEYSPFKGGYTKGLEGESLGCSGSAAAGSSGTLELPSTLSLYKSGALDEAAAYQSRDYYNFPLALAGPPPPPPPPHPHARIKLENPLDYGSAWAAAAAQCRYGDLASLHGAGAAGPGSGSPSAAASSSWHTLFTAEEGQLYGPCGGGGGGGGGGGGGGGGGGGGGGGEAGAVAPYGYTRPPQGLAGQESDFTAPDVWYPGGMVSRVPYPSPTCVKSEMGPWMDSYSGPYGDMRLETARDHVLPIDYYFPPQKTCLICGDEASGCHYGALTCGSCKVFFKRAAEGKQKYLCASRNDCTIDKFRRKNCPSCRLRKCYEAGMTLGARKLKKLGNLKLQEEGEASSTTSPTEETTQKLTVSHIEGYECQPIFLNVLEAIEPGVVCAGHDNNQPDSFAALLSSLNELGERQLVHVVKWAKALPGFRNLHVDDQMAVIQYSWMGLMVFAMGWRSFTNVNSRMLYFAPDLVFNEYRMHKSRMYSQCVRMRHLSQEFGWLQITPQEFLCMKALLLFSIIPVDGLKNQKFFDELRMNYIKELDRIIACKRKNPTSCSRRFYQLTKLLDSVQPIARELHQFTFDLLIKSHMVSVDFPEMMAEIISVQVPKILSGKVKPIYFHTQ
Quantity Name: IC50

molecule="CCCCCCC1(c2cccnc2)NC(=O)NC1=O (centres unmarked)" test_target="human androgen receptor (AR) binding to flARE (Homo sapiens, UniProt P10275)" result="> 10 µM"
molecule=CN1CCc2[nH]nc(-c3n[nH]c4c3CN(C)CC4)c2C1 test_target="human androgen receptor (AR) binding to flARE (Homo sapiens, UniProt P10275)" result="> 10 µM"
molecule=O=C1NC(=S)NC(=O)C1=Cc1cccc2cc3ccccc3cc12 test_target="human androgen receptor (AR) binding to flARE (Homo sapiens, UniProt P10275)" result="> 10 µM"
molecule=[Cu].c1ccc2c(c1)C1=NC2=NC2=NC(=NC3=NC(=NC4=NC(=N1)c1ccccc14)c1ccccc13)c1ccccc12 test_target="human androgen receptor (AR) binding to flARE (Homo sapiens, UniProt P10275)" result="> 10 µM"
molecule=CC(C)/C=N/Nc1ccc([N+](=O)[O-])cc1[N+](=O)[O-] test_target="human androgen receptor (AR) binding to flARE (Homo sapiens, UniProt P10275)" result="3.7 µM"

* * *

Some molecules, each annotated with its measured IC50.
- Test Target: human ERα binding to flcERE (Homo sapiens)
- Construct: Full-length FLAG-tagged human ERα was expressed and purified as described previously (27); FLAG; made in house
- Sequence (P03372 whole entry): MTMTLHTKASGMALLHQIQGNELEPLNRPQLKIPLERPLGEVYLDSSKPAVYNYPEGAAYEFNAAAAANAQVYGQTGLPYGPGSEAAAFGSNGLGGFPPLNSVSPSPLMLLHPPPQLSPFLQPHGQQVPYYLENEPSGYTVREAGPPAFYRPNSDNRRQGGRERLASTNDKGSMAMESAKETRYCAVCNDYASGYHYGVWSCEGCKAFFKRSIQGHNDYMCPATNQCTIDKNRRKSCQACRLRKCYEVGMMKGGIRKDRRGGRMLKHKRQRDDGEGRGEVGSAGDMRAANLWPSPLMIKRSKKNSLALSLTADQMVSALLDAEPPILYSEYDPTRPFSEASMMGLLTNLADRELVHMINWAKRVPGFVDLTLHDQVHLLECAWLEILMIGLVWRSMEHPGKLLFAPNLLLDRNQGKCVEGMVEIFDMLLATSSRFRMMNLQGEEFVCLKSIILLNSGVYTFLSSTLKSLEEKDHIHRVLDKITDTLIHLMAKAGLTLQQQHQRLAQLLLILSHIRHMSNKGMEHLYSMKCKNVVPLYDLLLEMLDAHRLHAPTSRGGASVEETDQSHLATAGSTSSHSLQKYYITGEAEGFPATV
- Assay Comment: FAMA: inhibition of ERα binding to flcERE
- Settings: FAMA, binding to HRE, 5 concentrations 0.5-10 μM, sequential method; read-out: IC50 ERα
Quantity Name: IC50

molecule="O=C(O)c1cccc2cccc(-c3cccc4cccc(C(=O)O)c34)c12 [Compound 7810]" test_target="human ERα binding to flcERE (Homo sapiens)" quantity_name=IC50 result="> 10 µM"
molecule="NNC(=O)OCc1ccccc1 [Compound 2287]" test_target="human ERα binding to flcERE (Homo sapiens)" quantity_name=IC50 result="2.1 µM"
molecule="N#CC(C#N)=CNCCN1CCN(C=C(C#N)C#N)CC1 [Compound 343040]" test_target="human ERα binding to flcERE (Homo sapiens)" quantity_name=IC50 result="> 10 µM"
molecule="O=C1C(CO)C(CO)C(CO)C1CO (stereo not shown) [Compound 9064]" test_target="human ERα binding to flcERE (Homo sapiens)" quantity_name=IC50 result="> 10 µM"

* * *

- Test Target: human PR-B binding to flPRE (Homo sapiens)
- Sequence (P06401 1-933): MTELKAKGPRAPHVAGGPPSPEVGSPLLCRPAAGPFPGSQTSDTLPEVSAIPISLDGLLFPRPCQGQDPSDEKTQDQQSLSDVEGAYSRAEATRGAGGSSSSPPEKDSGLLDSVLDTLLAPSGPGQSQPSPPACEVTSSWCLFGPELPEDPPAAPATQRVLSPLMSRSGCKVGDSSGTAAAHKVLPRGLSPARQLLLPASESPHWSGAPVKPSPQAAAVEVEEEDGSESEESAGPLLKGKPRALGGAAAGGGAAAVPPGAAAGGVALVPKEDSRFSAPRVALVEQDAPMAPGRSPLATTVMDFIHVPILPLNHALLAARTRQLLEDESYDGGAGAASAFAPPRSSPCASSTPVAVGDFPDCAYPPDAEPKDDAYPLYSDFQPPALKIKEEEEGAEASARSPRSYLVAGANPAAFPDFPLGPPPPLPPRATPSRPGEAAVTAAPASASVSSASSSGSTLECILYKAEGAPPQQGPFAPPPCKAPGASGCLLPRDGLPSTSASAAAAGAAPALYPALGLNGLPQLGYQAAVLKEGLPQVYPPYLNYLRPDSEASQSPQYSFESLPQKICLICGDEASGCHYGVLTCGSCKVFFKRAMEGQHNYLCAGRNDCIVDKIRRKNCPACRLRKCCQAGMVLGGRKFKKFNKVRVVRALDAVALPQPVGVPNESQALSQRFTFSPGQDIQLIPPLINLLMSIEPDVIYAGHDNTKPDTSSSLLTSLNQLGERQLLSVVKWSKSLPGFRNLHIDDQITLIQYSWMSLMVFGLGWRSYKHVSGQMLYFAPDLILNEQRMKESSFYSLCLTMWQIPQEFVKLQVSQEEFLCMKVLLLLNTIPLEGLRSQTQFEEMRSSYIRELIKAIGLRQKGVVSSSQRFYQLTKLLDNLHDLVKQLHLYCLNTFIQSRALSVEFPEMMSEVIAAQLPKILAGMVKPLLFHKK
List of IC50 values.
Quantity Name: IC50

molecule_smiles=O=C(O)/C=C/c1ccccc1Cl result="> 10 µM"
molecule_smiles=O=C(O)c1nn(-c2ccc(Cl)cc2)c2c1C(=O)c1ccccc1C2=O result="> 10 µM"
molecule_smiles=[Cu].c1ccc2c(c1)C1=NC2=NC2=NC(=NC3=NC(=NC4=NC(=N1)c1ccccc14)c1ccccc13)c1ccccc12 result="> 10 µM"
